The measurements presented in this section are drawn from paper PMC3724992.

TESTED_SYSTEM: HLA-A*0201 molecules on T2 cells (Homo sapiens, UniProt P04439, D140Y/D185E/D98H/E176V/E277Q/G131W/G231S/I119V/I121R/I166T/I218V/L300P/L318F/N151K/N90K/P208A/P217A/Q86G/Q94H/R138H/R169H/T345S)
Construct: endogenous in cells; host or cells: T2 cells
TEST_DETAILS: Peptide-binding assay: up-regulation of HLA-A*0201 on T2 cells
TEST_SETTINGS: 1 × 10^6 T2 cells, 50 μM peptide, serum-free RPMI 1640, β2-microglobulin 3 μg/ml, 16 h, 37 °C; flow cytometry with anti-HLA-A2 Ab (BB7.2) and FITC secondary; mean of triplicate
MEASURE: FI (fluorescence index)

- FSYGFFVI [mHpa (519–526), reference compound]: 0.38

A. VLLVSLSAA [neuritin127–135]
B. KLNGRYISL [neuritin4–12]
IN: Which of the two items, A and B , has the greater recorded FI (fluorescence index)? Answer = label.
OUT: B

###

TESTED_SYSTEM: HLA-A*0201 molecules on T2 cells (Homo sapiens, UniProt P04439, D140Y/D185E/D98H/E176V/E277Q/G131W/G231S/I119V/I121R/I166T/I218V/L300P/L318F/N151K/N90K/P208A/P217A/Q86G/Q94H/R138H/R169H/T345S)
Construct: endogenous in cells; host or cells: T2 cells
TEST_DETAILS: Peptide-binding assay: up-regulation of HLA-A*0201 on T2 cells
TEST_SETTINGS: T2 cells; authors' grading of the Table 2 data
MEASURE: affinity to HLA-A2.1 (in words)

• VLLVSLSAA [neuritin127–135] = low
• LLPAFPVLL [neuritin121–129] = moderate
• KLNGRYISL [neuritin4–12] = moderate
• ILAVQIAYL [neuritin13–21] = high
